The origin of these recorded values is paper PMC12416549.

study-target: T1, TNFR1 (Homo sapiens, UniProt P19438)
T1 chain: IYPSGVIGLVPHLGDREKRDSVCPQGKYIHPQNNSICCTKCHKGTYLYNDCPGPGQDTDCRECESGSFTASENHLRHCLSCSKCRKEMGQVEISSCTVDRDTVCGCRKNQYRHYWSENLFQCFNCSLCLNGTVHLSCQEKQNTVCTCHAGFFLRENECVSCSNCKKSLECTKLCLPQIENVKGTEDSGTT
method-summary: yeast display SC50
measured-endpoint: apparent Kd (screen) (nM)
Just the number please, in nM, no unit attached.

(Q) Given the binder E25L (designed binder) MTLQELLREEALRRAEAEAFRYALLLLAEKFPEQKEYLLDLAEEIESQIRSLSGVDVEDVRKFLDKEWAWVKELLAEHPAELAEVEAARAARLAELRAEVEAKVAA , what is its reported apparent Kd (screen)?
(A) 0.539

(Q) # repeat for L38W (designed binder) MTLQELLREEALRRAEAEAFRYALELLAEKFPEQKEYWLDLAEEIESQIRSLSGVDVEDVRKFLDKEWAWVKELLAEHPAELAEVEAARAARLAELRAEVEAKVAA
(A) 0.49

(Q) And what about the binder E16I (designed binder) MTLQELLREEALRRAIAEAFRYALELLAEKFPEQKEYLLDLAEEIESQIRSLSGVDVEDVRKFLDKEWAWVKELLAEHPAELAEVEAARAARLAELRAEVEAKVAA ?
(A) 0.539

(Q) Also, E18H (designed binder) MTLQELLREEALRRAEAHAFRYALELLAEKFPEQKEYLLDLAEEIESQIRSLSGVDVEDVRKFLDKEWAWVKELLAEHPAELAEVEAARAARLAELRAEVEAKVAA please.
(A) 0.49
